target: recombinant human integrin αvβ6 (Homo sapiens (Human), UniProt P06756+P18564); experiment: Solid phase integrin αvβ6 binding assay; settings: TGFβ1 LAP as ligand, IC50 presented in four ranges, read-out: αvβ6 Inhibition IC50 (nM) - range
Sequence (P06756 31-992): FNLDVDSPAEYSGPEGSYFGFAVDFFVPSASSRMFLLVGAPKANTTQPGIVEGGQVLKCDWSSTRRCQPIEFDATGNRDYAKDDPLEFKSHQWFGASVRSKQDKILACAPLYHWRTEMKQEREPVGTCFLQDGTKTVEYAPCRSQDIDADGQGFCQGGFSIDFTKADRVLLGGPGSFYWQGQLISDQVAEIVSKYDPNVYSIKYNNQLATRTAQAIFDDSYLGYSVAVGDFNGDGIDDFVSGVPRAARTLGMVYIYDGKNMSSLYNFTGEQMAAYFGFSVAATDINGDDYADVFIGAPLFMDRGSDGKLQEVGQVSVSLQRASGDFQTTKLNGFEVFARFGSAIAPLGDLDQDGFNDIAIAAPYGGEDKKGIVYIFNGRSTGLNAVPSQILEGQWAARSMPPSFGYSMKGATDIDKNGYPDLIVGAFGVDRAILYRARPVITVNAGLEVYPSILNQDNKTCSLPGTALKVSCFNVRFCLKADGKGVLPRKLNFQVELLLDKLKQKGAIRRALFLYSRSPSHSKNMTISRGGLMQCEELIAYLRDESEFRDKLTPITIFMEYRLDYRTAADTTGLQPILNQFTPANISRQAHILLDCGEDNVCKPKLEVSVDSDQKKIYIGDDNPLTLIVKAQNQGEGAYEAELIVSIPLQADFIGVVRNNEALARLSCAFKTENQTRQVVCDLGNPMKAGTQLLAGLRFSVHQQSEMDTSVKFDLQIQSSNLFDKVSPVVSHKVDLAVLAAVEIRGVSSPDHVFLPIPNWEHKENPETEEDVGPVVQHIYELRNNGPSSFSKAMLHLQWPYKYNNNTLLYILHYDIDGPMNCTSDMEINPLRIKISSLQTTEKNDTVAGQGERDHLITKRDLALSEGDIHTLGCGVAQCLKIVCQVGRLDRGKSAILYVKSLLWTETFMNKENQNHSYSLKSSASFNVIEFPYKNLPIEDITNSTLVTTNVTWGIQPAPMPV
Sequence (P18564 22-707): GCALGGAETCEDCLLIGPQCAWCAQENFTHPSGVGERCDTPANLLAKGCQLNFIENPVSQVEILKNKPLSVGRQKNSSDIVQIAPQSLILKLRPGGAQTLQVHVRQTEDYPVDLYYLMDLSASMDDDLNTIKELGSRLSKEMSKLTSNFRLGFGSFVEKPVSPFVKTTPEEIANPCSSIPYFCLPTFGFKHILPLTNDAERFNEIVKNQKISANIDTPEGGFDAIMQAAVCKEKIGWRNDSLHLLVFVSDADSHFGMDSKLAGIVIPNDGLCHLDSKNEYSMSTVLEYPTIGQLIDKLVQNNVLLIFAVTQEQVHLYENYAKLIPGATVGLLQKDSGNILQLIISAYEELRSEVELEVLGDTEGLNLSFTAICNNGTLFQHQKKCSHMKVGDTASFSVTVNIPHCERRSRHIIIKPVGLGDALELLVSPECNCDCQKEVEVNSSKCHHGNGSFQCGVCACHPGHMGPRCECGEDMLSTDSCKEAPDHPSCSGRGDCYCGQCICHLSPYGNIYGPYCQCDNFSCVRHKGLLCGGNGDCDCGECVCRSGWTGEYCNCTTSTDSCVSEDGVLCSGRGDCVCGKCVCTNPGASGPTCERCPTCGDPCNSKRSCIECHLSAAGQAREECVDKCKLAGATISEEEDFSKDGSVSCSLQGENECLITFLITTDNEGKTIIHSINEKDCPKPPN
measure: IC50

O=C(O)[C@H](CCN(CCCCc1ccc2c(n1)NCCC2)CCC(F)F)Nc1ncc(C2CC2)cn1 50 to 250 nM
O=C(O)[C@H](CCN(CCCCc1ccc2c(n1)NCCC2)CCC(F)F)Nc1ncc(Br)cn1 50 to 250 nM
Cn1ncc2c(N[C@@H](CCN(CCCCc3ccc4c(n3)NCCC4)CCS(C)(=O)=O)C(=O)O)ncnc21 50 to 250 nM
CO[C@H](C)CN(CCCCc1ccc2c(n1)NCCC2)CC[C@H](Nc1ncncc1-c1ccccc1)C(=O)O < 50 nM
COC[C@@H](F)CN(CCCCc1ccc2c(n1)NCCC2)CC[C@H](Nc1ncc(C#N)cn1)C(=O)O 250 to 1000 nM
COC[C@@H](F)CN(CCCCc1ccc2c(n1)NCCC2)CC[C@H](Nc1ccncn1)C(=O)O 250 to 1000 nM
O=C(O)[C@H](CCN(CCCCc1ccc2c(n1)NCCC2)C1CC1)Nc1ccncn1 250 to 1000 nM

FYI, the data here is from patent US11560376B2.
